# Assay System: human soluble CD4 (sCD4) (human, UniProt P01730)
Here, each record is paired with measured pKd data.
// pKd: -log10(molar conc.)

Example entries begin here.
{"Binder": "EYTFH (clone 40) (antibody, V domains shown) VH: QVQLQQSGPEVVKPGASVKMSCKASGYTFTEYTFHWVRQKPGQGLDWIGYINPYNDGTDYDEKFKGKATLTSDTSTSTAYMELSSLRSEDTAVYYCAREKDNYATGAWFAYWGQGTLVTVSS VL: DIVMTQSPDSLAVSLGERVTMNCKSSQSLLYSTNQKNYLAWYQQKPGQSPKLLIYWASTRESGVPDRFSGSGSGTDFTLTISSVQAEDVAVYYCQQYYSYRTFGGGTKLEIK", "pKd": 10.95}
{"Binder": "ML28 (antibody, V domains shown) VH: QVQLQQSGPEVVKPGASVKMSCKASGYTFTSYVIHWVRQKPGQGLDWIGYINPYNDGTDYDEKFKGKATLTSDTSTSTAYMELSSLRSEDTAVYYCAREKDNYAVPGWFAYWGQGTLVTVSS VL: DIVMTQSPDSLAVSLGERVTMNCKSSQSLLYSTNQKNYLAWYQQKPGQSPKLLIYWASTRESGVPDRFSGSGSGTDFTLTISSVQAEDVAVYYCQQYYSYRTFGGGTKLEIK", "pKd": 8.85}
{"Binder": "M22 (CDR-H1 DYTIH) (antibody, V domains shown) VH: QVQLQQSGPEVVKPGASVKMSCKASGYTFTDYTIHWVRQKPGQGLDWIGYINPYNDGTDYDEKFKGKATLTSDTSTSTAYMELSSLRSEDTAVYYCAREKDNYATGAWFAYWGQGTLVTVSS VL: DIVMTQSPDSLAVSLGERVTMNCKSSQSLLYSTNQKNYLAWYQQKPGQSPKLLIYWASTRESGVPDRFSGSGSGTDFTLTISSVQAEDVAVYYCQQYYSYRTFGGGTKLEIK", "pKd": 10.46}
{"Binder": "ML11 (antibody, V domains shown) VH: QVQLQQSGPEVVKPGASVKMSCKASGYTFTSYVIHWVRQKPGQGLDWIGYINPYNDGTDYDEKFKGKATLTSDTSTSTAYMELSSLRSEDTAVYYCVREKDSFATGAWFAYWGQGTLVTVSS VL: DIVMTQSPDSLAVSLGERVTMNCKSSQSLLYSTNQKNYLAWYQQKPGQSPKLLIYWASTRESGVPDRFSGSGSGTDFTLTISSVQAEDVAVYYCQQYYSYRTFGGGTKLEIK", "pKd": 8.61}
{"Binder": "ML1 (CDR-H1 SRVLS) (antibody, V domains shown) VH: QVQLQQSGPEVVKPGASVKMSCKASGYTFTSRVLSWVRQKPGQGLDWIGYINPYNDGTDYDEKFKGKATLTSDTSTSTAYMELSSLRSEDTAVYYCAREKDNYATGAWFAYWGQGTLVTVSS VL: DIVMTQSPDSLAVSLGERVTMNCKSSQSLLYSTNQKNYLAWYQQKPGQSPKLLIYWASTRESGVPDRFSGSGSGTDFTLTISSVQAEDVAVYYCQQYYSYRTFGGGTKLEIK", "pKd": 8.67}

pKd in this record for ML26 (antibody, V domains shown) VH: QVQLQQSGPEVVKPGASVKMSCKASGYTFTSYVIHWVRQKPGQGLDWIGYINPYNDGTDYDEKFKGKATLTSDTSTSTAYMELSSLRSEDTAVYYCARQAANYATGAWFAYWGQGTLVTVSS VL: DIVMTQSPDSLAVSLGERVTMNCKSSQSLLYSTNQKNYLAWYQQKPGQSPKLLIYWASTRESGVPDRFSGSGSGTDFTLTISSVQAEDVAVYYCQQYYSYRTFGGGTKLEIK : 8.44

Quick note, pKd for DQTLH (clone 27, 31) (antibody, V domains shown) VH: QVQLQQSGPEVVKPGASVKMSCKASGYTFTDQTLHWVRQKPGQGLDWIGYINPYNDGTDYDEKFKGKATLTSDTSTSTAYMELSSLRSEDTAVYYCAREKDNYATGAWFAYWGQGTLVTVSS VL: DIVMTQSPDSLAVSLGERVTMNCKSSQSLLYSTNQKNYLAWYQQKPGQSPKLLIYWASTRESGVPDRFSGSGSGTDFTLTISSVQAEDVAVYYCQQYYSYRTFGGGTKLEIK landed at 10.82

Form field pKd, entry SQTLH (clone 33) (antibody, V domains shown) VH: QVQLQQSGPEVVKPGASVKMSCKASGYTFTSQTLHWVRQKPGQGLDWIGYINPYNDGTDYDEKFKGKATLTSDTSTSTAYMELSSLRSEDTAVYYCAREKDNYATGAWFAYWGQGTLVTVSS VL: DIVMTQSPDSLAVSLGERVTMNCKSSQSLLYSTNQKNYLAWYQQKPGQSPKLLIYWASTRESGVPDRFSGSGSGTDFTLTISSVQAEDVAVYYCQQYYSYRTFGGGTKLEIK : 10.92

pKd reported for this binder M28 (CDR-H1 DYTFH) (antibody, V domains shown) VH: QVQLQQSGPEVVKPGASVKMSCKASGYTFTDYTFHWVRQKPGQGLDWIGYINPYNDGTDYDEKFKGKATLTSDTSTSTAYMELSSLRSEDTAVYYCAREKDNYATGAWFAYWGQGTLVTVSS VL: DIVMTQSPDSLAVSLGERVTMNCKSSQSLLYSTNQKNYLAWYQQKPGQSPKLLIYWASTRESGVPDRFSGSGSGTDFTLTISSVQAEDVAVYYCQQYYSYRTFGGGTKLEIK : 10.88

The recorded pKd for SQTIH (clone 23) (antibody, V domains shown) VH: QVQLQQSGPEVVKPGASVKMSCKASGYTFTSQTIHWVRQKPGQGLDWIGYINPYNDGTDYDEKFKGKATLTSDTSTSTAYMELSSLRSEDTAVYYCAREKDNYATGAWFAYWGQGTLVTVSS VL: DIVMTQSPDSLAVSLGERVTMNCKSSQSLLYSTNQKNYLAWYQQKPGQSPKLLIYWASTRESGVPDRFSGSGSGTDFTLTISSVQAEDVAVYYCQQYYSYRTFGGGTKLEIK is 10.72
